The reported numbers originate from ChEMBL document CHEMBL1909589.

method notes: Plasma concentration in Sprague-Dawley rat at 10 mg/kg, po after 4 hrs
Assay type: ADME, organism-based
Parameters: dose 10 mg/kg, route oral
property measured: concentration at 4 h (ng/mL)

CN(C)S(=O)(=O)NCCCCCNc1nc(-c2ccccn2)cs1; 24
